Each entry below carries its reported Kd.
- tgt: CAL PDZ domain (CALP5-His) (Homo sapiens, UniProt Q9HD26)
- Construct: His
- test-method-notes: Direct fluorescence polarization binding of labeled peptide, Condition C
- recorded-conditions: FITC-labeled peptide, FP; read-out: Affinity (KD)
Where a SMILES comes first, the peptide text is derived from it. [ ]: non-standard residue; d: D form. The star is where a group is joined. X1 = O=C(O)c1cc(NC(=S)*)ccc1C1c2ccc(O)cc2Oc2cc(O)ccc21; 2Nal = N[C@@H](Cc1ccc2ccccc2c1)C(=O)O; Bta = N[C@@H](Cc1csc2ccccc12)C(=O)O; Pen = CC(C)(S)[C@H](N)C(=O)O; Tle = CC(C)(C)[C@H](N)C(=O)O; AEEA = NCCOCCOCC(=O)O
The response must be a number in nM with no trailing unit.

Query block: Can you look up the measured Kd of C[C@@H](O)[C@H](NC(=O)[C@@H](NC(=O)[C@@H]1CCCN1C(=O)[C@H](Cc1c[nH]c2ccccc12)NC(=O)[C@H](Cc1ccc2ccccc2c1)NC(=O)[C@H](CCCNC(=N)N)NC(=O)[C@H](CCCNC(=N)N)NC(=O)[C@@H](CCCNC(=N)N)NC(=O)[C@H](CS)NC(=O)COCCOCCNC(=S)Nc1ccc(C2c3ccc(O)cc3Oc3cc(O)ccc32)c(C(=O)O)c1)C(C)(C)S)C(=O)N[C@@H](CCCNC(=N)N)C(=O)N[C@H](C(=O)O)C(C)(C)C [Compound 27-FITC] ({X1-AEEA}-C[dR]RR[2Nal]WP[Pen]TR[Tle]-OH) for me?
Result block: 179

Query block: Can you look up the measured Kd of CC(=O)N[C@@H](CS)C(=O)N[C@H](CCCNC(=N)N)C(=O)N[C@@H](CCCNC(=N)N)C(=O)N[C@@H](CCCNC(=N)N)C(=O)N[C@@H](Cc1ccc2ccccc2c1)C(=O)N[C@@H](Cc1csc2ccccc12)C(=O)N1CCC[C@H]1C(=O)N[C@H](C(=O)N[C@H](C(=O)N[C@@H](CCCNC(=N)N)C(=O)N[C@H](C(=O)O)C(C)(C)C)[C@@H](C)O)C(C)(C)S [Compound 28] (Ac-C[dR]RR[2Nal][Bta]P[Pen]TR[Tle]-OH) for me?
Result block: 87

Pending molecule:
Query block: Can you look up the measured Kd of C[C@@H](O)[C@H](NC(=O)[C@@H](NC(=O)[C@@H]1CCCN1C(=O)[C@H](Cc1csc2ccccc12)NC(=O)[C@H](Cc1ccc2ccccc2c1)NC(=O)[C@H](CCCNC(=N)N)NC(=O)[C@H](CCCNC(=N)N)NC(=O)[C@@H](CCCNC(=N)N)NC(=O)[C@H](CS)NC(=O)COCCOCCNC(=S)Nc1ccc(C2c3ccc(O)cc3Oc3cc(O)ccc32)c(C(=O)O)c1)C(C)(C)S)C(=O)N[C@@H](CCCNC(=N)N)C(=O)N[C@H](C(=O)O)C(C)(C)C [Compound 28-FITC] ({X1-AEEA}-C[dR]RR[2Nal][Bta]P[Pen]TR[Tle]-OH) for me?
Result block: 87
